# experimental.system: FKBP12 (Homo sapiens (Human))
# Sequence (P62942 whole entry): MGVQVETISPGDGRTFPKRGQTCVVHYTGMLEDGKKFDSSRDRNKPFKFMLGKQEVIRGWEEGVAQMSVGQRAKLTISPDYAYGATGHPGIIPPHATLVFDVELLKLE
# protocol.summary: FKBP12 binding assay (fluorescence polarization)
# setup.conditions: read-out: Kd FKBP12
pKd: −log10 of the molar value.
test.readout: pKd

Some compounds with recorded pKd:
CCC(C)(C)C(=O)C(=O)N1CCCC[C@H]1C(=O)O[C@H](CCc1ccc(OC)c(OC)c1)c1cccc(NC(=O)C[N+](C)(C)C)c1 [ZZY01-025] | 7.02
CCC(C)(C)C(=O)C(=O)N1CCCC[C@H]1C(=O)O[C@H](CCc1ccc(OC)c(OC)c1)c1cccc(NC(=O)CNC(=N)N)c1 [ZZY01-065] | 7.42
CO[C@H]1C/C(C)=C/[C@@H](C/C=C/c2cccc[n+]2[O-])C(=O)C[C@H](O)[C@@H](C)[C@@H](/C(C)=C/[C@@H]2CC[C@@H](O)[C@H](OC)C2)OC(=O)[C@@H]2CCCCN2C(=O)C(=O)[C@]2(O)O[C@H]([C@@H](OC)C1)[C@@H](OC)C[C@H]2C [ZZY05-060] | 9.21

[I] CCC(C)(C)C(=O)C(=O)N1CCCC[C@H]1C(=O)O[C@H](CCc1ccc(OC)c(OC)c1)c1cccc(NCCN)c1 [ZZY02-032]
[II] C=CC(=O)Nc1cccc([C@@H](CCc2ccc(OC)c(OC)c2)OC(=O)[C@@H]2CCCCN2C(=O)C(=O)C(C)(C)CC)c1 [ZZY02-014]
[III] CO[C@H]1C/C(C)=C/[C@@H](CCCC(=O)Nc2ccccn2)C(=O)C[C@H](O)[C@@H](C)[C@@H](/C(C)=C/[C@@H]2CC[C@@H](O)[C@H](OC)C2)OC(=O)[C@@H]2CCCCN2C(=O)C(=O)[C@]2(O)O[C@H]([C@@H](OC)C1)[C@@H](OC)C[C@H]2C [ZZY05-064]
[IV] CCC(C)(C)C(=O)C(=O)N1CCCC[C@H]1C(=O)O[C@H](CCc1ccc(OC)c(OC)c1)c1cccc(NC(=O)CN)c1 [ZZY01-040]
[V] CCC(C)(C)C(=O)C(=O)N1CCCC[C@H]1C(=O)O[C@H](CCc1ccc(OC)c(OC)c1)c1cccc(NC(=O)CN=[N+]=[N-])c1 [ZZY02-096]
[Q] Task for the reader: rank each entry by its pKd, from the minimum upward. A complete answer lists every label in the requested sequence.
[A] II, I, IV, V, III
(II: 7.19, I: 7.44, IV: 7.67, V: 8.22, III: 9.70)

[1] CCC(C)(C)C(=O)C(=O)N1CCCC[C@H]1C(=O)O[C@H](CCc1ccc(OC)c(OC)c1)c1cccc(NC(=O)CNc2ccccn2)c1 [ZZY03-091]
[2] CCC(C)(C)C(=O)C(=O)N1CCCC[C@H]1C(=O)O[C@H](CCc1ccc(OC)c(OC)c1)c1cccc(NC(=O)CS)c1 [ZZY02-055]
[Q] Lab note: check whether 1 or 2 has the lower measured pKd. Give the chosen item's label as your response.
[A] 2
(2: 7.20, 1: 7.43)
